Test system: Plasmodium falciparum
Assay: Anti-protozoan data: P. falcip. IC50
Assay type: cell-based
Settings: Tables VI(a), VI(c), read-out: P. falcip. IC50
recorded_metric: pIC50
// pIC50 is dimensionless: -log10 of concentration (M)

So what's the measured pIC50 for this one? Cl.Cl.N=C(N)c1ccc(OCCCOc2cccc(-c3cc4ccc(C(=N)N)cc4o3)c2)cc1 [Compound 56, dihydrochloride]
7.08

So what's the measured pIC50 for this one? Cl.Cl.c1cc(C2=NCCN2)ccc1OCCCCCCOc1ccc(-c2cc3cc(C4=NCCN4)ccc3o2)cc1 [Compound 55, dihydrochloride]
6.94

So what's the measured pIC50 for this one? Cl.Cl.c1cc(OCCCCCOc2ccc(C3=NCCN3)cc2)cc(-c2cc3cc(C4=NCCN4)ccc3o2)c1 [Compound 40, dihydrochloride]
7.00
